# Target Or Test System: human orexin type 2 receptor (hOX2R) (Homo sapiens, UniProt O43614)
# Construct: expressed in transfected cells
# Protocol Text: Orexin type 2 receptor agonist activity, intracellular Ca2+ (FLIPR TETRA)
# Assay type: cell-based
# Test Conditions: CHO cells expressing hOX2R; Ca2+ fluorescence area; read-out: hOx2 pEC50 (converted)
# Experimental: Stable cell line generation. […] Measurement of orexin type 2 receptor agonist activity. […] The agonist activity of the test compound was calculated assuming that the fluorescence value of the well added with only the dilution buffer was 0% and the fluorescence value of the well added with 10 nM human orexin A (Tocris) buffer was 100%. […]
Experimental Endpoint: EC50

For orientation, consider the following solved cases.
In [3]: df
Out[3]:
                                   molecule                     target_or_test_system  experimental_endpoint  recorded_result
0  CCS(=O)(=O)NC1CCN2C(=O)CCCOc3ccccc3-c3cccc(c3)CC12 (racemic) [Compound A1-31]  human orexin type 2 receptor (hOX2R) (Homo sapiens, UniProt O43614)                   EC50   100 to 1000 nM
1  CN(C)S(=O)(=O)N[C@H]1CCCN2C(=O)OCCOc3ccccc3-c3cccc(c3)C[C@@H]12 [Compound A1-77]  human orexin type 2 receptor (hOX2R) (Homo sapiens, UniProt O43614)                   EC50     10 to 100 nM
2  O=C1CCOc2c(F)cccc2-c2cccc(c2)C[C@H]2[C@@H](NS(=O)(=O)CF)CCCN12 [Compound A1-90]  human orexin type 2 receptor (hOX2R) (Homo sapiens, UniProt O43614)                   EC50      0.1 to 1 nM
3  CCS(=O)(=O)NC1CCN2C(=O)CC/C=C\c3ccccc3-c3cccc(c3)CC12 (racemic) [Compound A1-26]  human orexin type 2 receptor (hOX2R) (Homo sapiens, UniProt O43614)                   EC50   100 to 1000 nM
4  CCS(=O)(=O)NC1CCN2C(=O)CCCc3ccccc3-c3cccc(c3)CC12 (racemic) [Compound A1-19]  human orexin type 2 receptor (hOX2R) (Homo sapiens, UniProt O43614)                   EC50   100 to 1000 nM
5  CCS(=O)(=O)N[C@H]1CCN2C(=O)NCCOc3ccccc3-c3cccc(c3)C[C@@H]12 [Compound A1-7]  human orexin type 2 receptor (hOX2R) (Homo sapiens, UniProt O43614)                   EC50     10 to 100 nM
6  CS(=O)(=O)NC1CCN2C(=O)N3CC(CCCc4ccccc4-c4cccc(c4)CC12)C3 (racemic) [Compound A1-14]  human orexin type 2 receptor (hOX2R) (Homo sapiens, UniProt O43614)                   EC50     10 to 100 nM
7  CN1CCOc2ccccc2-c2cccc(c2)C[C@H]2[C@@H](NS(=O)(=O)C(F)F)C3(CC3)CN2C1=O [Compound A1-95]  human orexin type 2 receptor (hOX2R) (Homo sapiens, UniProt O43614)                   EC50       1 to 10 nM
8  CN(C)S(=O)(=O)N[C@H]1CCCN2C(=O)CCOc3ccccc3-c3cccc(c3)C[C@@H]12 [Compound A1-76]  human orexin type 2 receptor (hOX2R) (Homo sapiens, UniProt O43614)                   EC50       1 to 10 nM
9  O=C1CCOc2ccccc2-c2cccc(c2)C[C@H]2[C@@H](NS(=O)(=O)CF)CCCN12 [Compound A1-80]  human orexin type 2 receptor (hOX2R) (Homo sapiens, UniProt O43614)                   EC50       1 to 10 nM

Lab note: measured EC50 of O=C1CCOc2ccccc2-c2cccc(c2F)C[C@H]2[C@@H](NS(=O)(=O)CF)CCCN12 [Compound A1-102] was 10 to 100 nM

Looking up CCS(=O)(=O)NC1CCN2C(=O)N3CC[C@H]3COc3ccccc3-c3cccc(c3)CC12 (stereo partly shown) [Compound A1-65] , I found its EC50 recorded as 10 to 100 nM

EC50 in this record for CS(=O)(=O)NC1CCN2C(=O)N3CC(CCc4ccccc4-c4cccc(c4)CC12)C3 (racemic) [Compound A1-13] : 10 to 100 nM

====

# Target Or Test System: human orexin type 2 receptor (hOX2R) (Homo sapiens, UniProt O43614)
# Construct: expressed in transfected cells
# Sequence (O43614 1-444): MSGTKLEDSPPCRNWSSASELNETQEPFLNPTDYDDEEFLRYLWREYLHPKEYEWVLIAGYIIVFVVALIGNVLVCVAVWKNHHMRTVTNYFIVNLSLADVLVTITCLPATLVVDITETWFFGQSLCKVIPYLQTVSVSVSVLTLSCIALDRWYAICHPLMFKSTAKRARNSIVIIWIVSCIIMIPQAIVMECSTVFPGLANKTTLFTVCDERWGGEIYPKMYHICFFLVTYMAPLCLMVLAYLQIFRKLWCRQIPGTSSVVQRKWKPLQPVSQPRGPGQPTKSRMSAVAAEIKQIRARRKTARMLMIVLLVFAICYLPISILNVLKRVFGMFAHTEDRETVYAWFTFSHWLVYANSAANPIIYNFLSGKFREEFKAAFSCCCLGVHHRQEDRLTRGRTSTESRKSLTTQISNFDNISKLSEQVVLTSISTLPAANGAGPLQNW
# Protocol Text: Orexin type 2 receptor agonist activity, intracellular Ca2+ (FLIPR TETRA)
# Assay type: cell-based
# Test Conditions: CHO cells expressing hOX2R; Ca2+ fluorescence area; read-out: hOx2 pEC50 (converted)
# Description: Stable cell line generation. […] Measurement of orexin type 2 receptor agonist activity. […] The agonist activity of the test compound was calculated assuming that the fluorescence value of the well added with only the dilution buffer was 0% and the fluorescence value of the well added with 10 nM human orexin A (Tocris) buffer was 100%. […]
Experimental Endpoint: EC50

>>> df
                                   molecule  recorded_result
0  CCS(=O)(=O)NC1CCN2C(=O)OCC/C=C\Cc3ccccc3-c3cccc(c3)CC12 (racemic)   100 to 1000 nM

Record CCS(=O)(=O)NC1CCN2C(=O)CCC/C=C/c3ccccc3-c3cccc(c3)CC12 (mixture of isomers) , field EC50: 100 to 1000 nM

Data point: CS(=O)(=O)N[C@H]1CCCN2C(=O)CCOc3ccccc3-c3cccc(c3)C[C@@H]12 [Compound A1-78] ; EC50 = 1 to 10 nM

Sample CCS(=O)(=O)NC1CCN2C(=O)NCCCCc3ccccc3-c3cccc(c3)CC12 (racemic) ; EC50 observed: 10 to 100 nM

====

# Target Or Test System: human orexin type 2 receptor (hOX2R) (Homo sapiens, UniProt O43614)
# Construct: expressed in transfected cells
# Sequence (O43614 1-444): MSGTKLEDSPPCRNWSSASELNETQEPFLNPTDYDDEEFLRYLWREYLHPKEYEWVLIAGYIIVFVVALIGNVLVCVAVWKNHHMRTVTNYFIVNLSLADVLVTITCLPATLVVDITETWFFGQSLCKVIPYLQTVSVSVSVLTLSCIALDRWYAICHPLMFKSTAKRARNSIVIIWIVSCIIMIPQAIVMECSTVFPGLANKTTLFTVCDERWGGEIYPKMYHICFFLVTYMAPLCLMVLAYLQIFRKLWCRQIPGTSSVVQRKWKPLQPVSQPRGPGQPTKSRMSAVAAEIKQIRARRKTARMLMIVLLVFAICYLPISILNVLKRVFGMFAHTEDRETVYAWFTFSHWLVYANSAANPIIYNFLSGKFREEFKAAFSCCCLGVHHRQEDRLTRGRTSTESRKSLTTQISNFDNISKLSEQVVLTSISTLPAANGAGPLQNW
# Protocol Text: Orexin type 2 receptor agonist activity, intracellular Ca2+ (FLIPR TETRA)
# Type: cell-based
# Test Conditions: CHO cells expressing hOX2R; Ca2+ fluorescence area; read-out: hOx2 pEC50 (converted)
# Method: Stable cell line generation. […] Measurement of orexin type 2 receptor agonist activity. […] The agonist activity of the test compound was calculated assuming that the fluorescence value of the well added with only the dilution buffer was 0% and the fluorescence value of the well added with 10 nM human orexin A (Tocris) buffer was 100%. […]
Form field: EC50 (one value per entry).

Worked set:
In [3]: df
Out[3]:
                                   molecule  recorded_result
0  CN(C)S(=O)(=O)N[C@@H]1CCCN2C(=O)CCOc3ccccc3-c3cccc(c3)C[C@H]12     10 to 100 nM
1  CS(=O)(=O)N[C@@H]1CCCN2C(=O)NCCOc3ccccc3-c3cccc(c3)C[C@H]12       1 to 10 nM
2  CCS(=O)(=O)NC1CCN2C(=O)NCCCCCc3ccccc3-c3cccc(c3)CC12 (racemic)       1 to 10 nM

Lab note: `C[C@H]1COc2ccccc2-c2cccc(c2)C[C@H]2[C@@H](NS(C)(=O)=O)CCCN2C1=O` gave EC50 of 10 to 100 nM

Record summary for CCS(=O)(=O)NC1CCN2C(=O)NCC/C=C/Cc3ccccc3-c3cccc(c3)CC12 (racemic) : reported EC50 = 1 to 10 nM

Measured EC50 of `CS(=O)(=O)N[C@H]1CCCN2C(=O)OCCOc3ccccc3-c3cccc(c3)C[C@@H]12` : 10 to 100 nM

The reported EC50 of the molecule CCS(=O)(=O)N[C@H]1CCCN2C(=O)CCOc3ccccc3-c3cccc(c3)C[C@@H]12 [Compound A1-74] was 10 to 100 nM
